- Test system: CCRF-CEM
- assay-protocol: Growth inhibition of human CCRF-CEM cells incubated for 48 hrs by sulforhodamine B assay
- Assay type: functional
- condition-parameters: read-out: GI50
Reported GI50 is given for each of the following compounds.
The reply should contain only the number, in µM.

[
  {
    "molecular-string": "c1ccc(-c2nc(Nc3ccc(-c4nc5ccccc5[nH]4)cc3)nc(N3CCOCC3)n2)cc1",
    "units-label": "µM",
    "GI50": 0.544
  },
  {
    "molecular-string": "Fc1ccc(-c2nc(Nc3ccc(-c4nc5ccccc5[nH]4)cc3)nc(N3CCOCC3)n2)cc1",
    "units-label": "µM",
    "GI50": 3.11
  },
  {
    "molecular-string": "c1ccc2[nH]c(-c3ccc(Nc4nc(N5CCCCC5)nc(N5CCOCC5)n4)cc3)nc2c1",
    "units-label": "µM",
    "GI50": 3.25
  }
]

Shifting focus to the compound that follows.
Task: Could you share which GI50 value was measured for Clc1ccc(-c2nc(Nc3ccc(-c4nc5ccccc5[nH]4)cc3)nc(N3CCOCC3)n2)cc1 ?
Result: 0.259

Each recorded value in this set is attributed to ChEMBL document CHEMBL3808334.
